This collection of values is drawn from patent US11192890B2.

experiment: Murine plasma pharmacokinetics assay
Format: in vivo, NIH-III nude mice
testSettings: female, NIH-III nude, mouse, plasma, ip, 40 mg/kg, 40 mg/kg intraperitoneal, plasma; read-out: Cmax-obs
measuredEndpoint: Cmax (µM)

{"entrySmiles": "COc1cc(OC)c(Cl)c(N2Cc3cnc(Nc4ccccc4)nc3N(C3CCN(C(=O)/C=C/C[N+](C)(C)Cc4c([N+](=O)[O-])ncn4C)CC3)C2=O)c1Cl.[Br-]", "value": 51.8}

----------
targetOfAssay: recombinant FGFR1 (C584S) kinase domain (Homo sapiens, UniProt P11362, C584S)
Construct: made in house; host or cells: pETDuet vector, IPTG induction in Terrific Broth (bacterial)
Sequence (P11362 with tags, fused parts or gaps C584S): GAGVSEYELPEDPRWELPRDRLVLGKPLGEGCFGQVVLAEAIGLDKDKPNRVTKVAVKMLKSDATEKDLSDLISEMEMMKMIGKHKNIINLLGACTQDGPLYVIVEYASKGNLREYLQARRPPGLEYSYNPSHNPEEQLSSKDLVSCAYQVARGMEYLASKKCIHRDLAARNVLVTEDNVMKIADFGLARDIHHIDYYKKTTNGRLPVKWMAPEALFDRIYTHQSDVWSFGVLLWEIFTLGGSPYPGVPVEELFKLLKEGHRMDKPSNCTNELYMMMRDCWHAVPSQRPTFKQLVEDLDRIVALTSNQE
experiment: FGFR1 (C584S) covalent binding protein mass spectrometry assay
testSettings: protein:inhibitor 1:10, 37° C.
measuredEndpoint: % Conversion to FGFR1 (C584S) covalent adduct after 120 minutes incubation (%)

{"entrySmiles": "COc1cc(OC)c(Cl)c(N2Cc3cnc(NC(C)C)nc3N([C@H]3CCN(C(=O)/C=C/CN(C)C)C3)C2=O)c1Cl", "targetOfAssay": "recombinant FGFR1 (C584S) kinase domain (Homo sapiens, UniProt P11362, C584S)", "unit": "%", "value": 8}
{"entrySmiles": "COc1cc(OC)c(Cl)c(N2Cc3cnc(Nc4ccc(N5CCOCC5)cc4)nc3N(C3CCN(C(=O)/C=C/CN(C)C)CC3)C2=O)c1Cl", "targetOfAssay": "recombinant FGFR1 (C584S) kinase domain (Homo sapiens, UniProt P11362, C584S)", "unit": "%", "value": 46}
{"entrySmiles": "COc1cc(OC)c(Cl)c(N2Cc3cnc(Nc4ccccc4)nc3N(C3CCN(C(=O)/C=C/CN(C)C)CC3)C2=O)c1", "targetOfAssay": "recombinant FGFR1 (C584S) kinase domain (Homo sapiens, UniProt P11362, C584S)", "unit": "%", "value": 48}
